Measured MIC of individual entries
Test system: Pasteurella multocida
EXPERIMENTAL PROTOCOL: MIC (Minimum Inhibitory Concentration)
Type: cell-based
TEST SETTINGS: Pasteurella multocida, read-out: MIC values

| COMPOUND | MODIFIER SIGN | MIC / µg/mL |
| --- | --- | --- |
| [C-]#[N+]C(C1=CCCCCC1)S(=O)(=O)c1ccc(C)cc1 (stereo not drawn) [Example 18b] | = | 50 |
| [C-]#[N+]C(=C1C2CC3CC(C2)CC1C3)S(=O)(=O)c1ccc(C)cc1 | > | 100 |
| [C-]#[N+]C(=C1CCCC1)S(=O)(=O)c1ccc(C)cc1 | = | 3 |
| [C-]#[N+]C(=C1CCOCC1)S(=O)(=O)c1ccc(C)cc1 [Example 14a] | = | 6 |
| [C-]#[N+]C(C1=CCCCCCC1)S(=O)(=O)c1ccc(C)cc1 (stereo not drawn) | = | 50 |
| [C-]#[N+]C(=C1CCCCCC1)S(=O)(=O)c1ccc(C)cc1 [Example 18a] | = | 20 |
| [C-]#[N+]C(=C1CCSCC1)S(=O)(=O)c1ccc(C)cc1 [Example 16a] | = | 6 |
| [C-]#[N+]C(=C1CCCCC1)S(=O)(=O)c1ccccc1 | = | 3 |
| Clc1ccc(COC(Cn2ccnc2)c2ccc(Cl)cc2Cl)c(Cl)c1 (stereo not drawn) [miconazole, reference compound] | > | 100 |

These entries and their values trace back to patent EP0007672A1.
